Data credit: ChEMBL document CHEMBL1145498

Reported values: ΔTm for Calcium/calmodulin-dependent protein kinase kinase 2 (Homo sapiens), one per item.

Look up ΔTm for this molecule: CC(C)(C)c1nc2c3ccc(F)cc3c3c(=O)[nH]ccc3c2[nH]1
1.3 °C

Now give it for OC[C@H]1O[C@@H](n2cnc3cc(Cl)c(Cl)cc32)[C@H](O)[C@@H]1O too.
0.6 °C

Now give it for C[C@@H](N)[C@H]1CC[C@H](C(=O)Nc2ccncc2)CC1 too.
-0.8 °C

Now give it for COc1cc(C[C@H]2C(=O)OC[C@@H]2Cc2ccc(OC)c(OC)c2)ccc1O [ARCTIGENIN] too.
-0.9 °C

Now give it for C=CNC#N too.
0.9 °C

Now give it for N#C/C(=C1/Nc2ccccc2S1)c1ccnc(NCCc2cccnc2)n1 too.
3.7 °C

Now give it for CCN1/C(=C/C(C)=O)Sc2ccc(OC)cc21 too.
0.4 °C

Now give it for CCN(CC)CCNC(=O)c1c(C)[nH]c(/C=C2\C(=O)Nc3ccc(Cl)cc32)c1C [SU-11652] too.
7.9 °C

Now give it for COC1=C2C[C@@H](C)C[C@H](OC)[C@H](O)[C@@H](C)/C=C(\C)[C@H](OC(N)=O)[C@@H](OC)/C=C\C=C(/C)C(=O)NC(=CC1=O)C2=O too.
-0.6 °C

Now give it for COC(=O)[C@]1(O)C[C@@H]2O[C@@]1(C)n1c3ccccc3c3c4c(c5c6ccccc6n2c5c31)C(=O)NC4 (single isomer, unassigned) too.
4.2 °C

Now give it for Cn1cc(C2=C(c3cn(CCCSC(=N)N)c4ccccc34)C(=O)NC2=O)c2ccccc21 too.
0.1 °C

Now give it for CCOC(=O)c1cnc2oc3ccc(O)cc3c2c1-c1ccccc1 too.
2.3 °C

Now give it for CN1CCc2[nH]c(=S)c(C#N)c(-c3cccs3)c2C1 too.
3.8 °C

Now give it for Cc1nc(Nc2ncc(C(=O)Nc3c(C)cccc3Cl)s2)cc(N2CCN(CCO)CC2)n1 too.
0.6 °C

Now give it for O=c1c(O)c(-c2ccc(O)c(O)c2)oc2cc(O)cc(O)c12 [QUERCETIN] too.
5.5 °C

Now give it for O=c1c2ccccc2[nH]c(=S)n1CCN1CCC(=C(c2ccc(F)cc2)c2ccc(F)cc2)CC1 [DIACYLGLYCEROL KINASE INHIBITOR II] too.
1.8 °C

Now give it for COc1cc2ncnc(Nc3cccc(Br)c3)c2cc1OC too.
1.4 °C

Now give it for O=c1cc(-c2ccc(O)cc2)oc2cc(O)cc(O)c12 too.
3 °C

Now give it for Cc1cncc2cccc(S(=O)(=O)N3CCCNC[C@@H]3C)c12 too.
-0.1 °C

Now give it for COc1ccc(COc2ccc(Cc3cnc(N)nc3N)cc2OC)cc1 too.
-0.1 °C

Now give it for C[S+]([O-])c1ccc(-c2nc(-c3ccc(F)cc3)c(-c3ccncc3)[nH]2)cc1 (stereo unspecified) [SB-203580] too.
0 °C

Now give it for CC(C)n1cnc2c(NCc3ccccc3O)nc(NCCCO)nc21 too.
0.2 °C

Now give it for N#CC(C#N)=Cc1ccc(O)c(O)c1 [TYRPHOSTIN 23] too.
-0.7 °C

Now give it for CC(=O)O/N=C1/C(=C2/C(=O)Nc3cc(Br)ccc32)Nc2ccccc21 [6-BROMOINDIRUBIN-3'-ACETOXIME] too.
-1.7 °C

Now give it for NC(=O)c1ccc(-c2nc(-c3ccc4c(c3)OCCO4)c(-c3ccccn3)[nH]2)cc1 too.
-1.1 °C

Now give it for Cc1[nH]c(/C=C2\C(=O)Nc3ccc(S(=O)(=O)N(C)c4cccc(Cl)c4)cc32)c(C)c1C(=O)N1CCN(C)CC1 too.
1.2 °C
